Target: T1, human PRLR (Biacore antigen) (human, UniProt P16471 25-234, limits assumed)
T1 construct: The construct injected over captured antibody is not described (a soluble form is likely); also called huPRLR
T1 sequence: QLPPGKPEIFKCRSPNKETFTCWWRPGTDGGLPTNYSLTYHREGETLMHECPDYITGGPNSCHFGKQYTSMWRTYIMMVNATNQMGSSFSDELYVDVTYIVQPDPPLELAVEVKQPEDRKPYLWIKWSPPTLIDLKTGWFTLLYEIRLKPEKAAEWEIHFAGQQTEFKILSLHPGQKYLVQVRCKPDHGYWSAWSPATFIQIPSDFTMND
Experiment: SPR Biacore
Measured Parameter: koff (s⁻¹)
Give bare numbers, in s⁻¹.

Binder: Ab5 (antibody, V domains shown, murine monoclonal, isotype G2a; also called murine Ab5) VH: QVQLQQPGAELVRPGTSVKLSCKASGYTFTSFWMHWVKQRPGQGLEWIGVIDPSDTYTNYNQKFKGKATLTVDTSSSTAYMQLSSLTSEDSAVYYCARGDYSNWFTYWGQGTLVTVSA VL: DVVMTQTPLSLPVSLGDQASISCRSSQRLVHSNGNTYLHWYLQKPGQSPKLLIYKVSNRFSGVPDRFSGSGSGTDFTLKISRVEAEDLGVYFCSQSTHVPWTFGGGTKLEIK
Measured Parameter: koff
Value Measured: 0.000203
//
Binder: Ab54 (antibody, human IgG1, kappa, V domains shown, humanized from Ab7 (back mutations on Ab39); G1; also called Ab4 HC.1a.3 and Ab4 LC.1a) VH: EVQLVQSGAEVKKPGSSVKVSCKASGYTFTSYWIHWVRQAPGQGLEWIGEIDPSDSYTNYNQKFKGRATLTVDKSSSTAYMELSSLRSEDTAVYYCGRSFFTNWFAYWGQGTLVTVSS VL: DVVMTQTPLSLSVTPGQPASISCRSSQSLVHSNGNTYLHWYLQKPGQSPQLLIYKVSNRFSGVPDRFSGSGSGTDFTLKISRVEAEDVGVYFCSQSTHVPFTFGGGTKVEIKR
Measured Parameter: koff
Value Measured: 0.00014
//
Binder: Ab53 (antibody, human IgG1, kappa, V domains shown, humanized from Ab7 (back mutations on Ab36); G1; also called Ab4 HC.1b.2 and Ab4 LC.1a) VH: EVQLVQSGAEVKKPGSSVKVSCKASGYTFTSYWIHWVRQAPGQGLEWIGEIDPSDSYTNYNQKFKGRVTITVDKSTSTAYMELSSLRSEDTAVYYCARSFFTNWFAYWGQGTLVTVSS VL: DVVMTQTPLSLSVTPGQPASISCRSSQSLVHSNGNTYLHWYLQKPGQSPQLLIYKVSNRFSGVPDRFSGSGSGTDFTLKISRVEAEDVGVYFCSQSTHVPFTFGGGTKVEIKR
Measured Parameter: koff
Value Measured: 0.001
//
Binder: chAb8 (antibody, human IgG1, kappa, V domains shown, chimeric, murine variable and human G1/kappa constant regions) VH: EVQLQQSGPELVKPGASVKISCKASGYTFTDYNIHWVKQSHGKSLEWIGYIYPNNDGTGYNQKFKSKATLTVDNSSSTAYMEVRSLTSEDSAVYYCARGDGNYVGDMDYWGQGTSVTVSS VL: DIQMTQSPASLSASVGETVTITCRASENIYSYLAWYQQKQGKPPQLLVYNAKTLAEGVPSRFSGGGSGTQFSLKINSLQPEDFGSYYCQHHYATPFTFGSGTKLEIKT
Measured Parameter: koff
Value Measured: 9.1e-05

Consider now this further binder.
Suppose we examine the binder Ab30 (antibody, human IgG1, kappa, V domains shown, humanized from Ab5; G1; also called Ab2 HC.1a and Ab2 LC.1a) VH: EVQLVQSGAEVKKPGSSVKVSCKASGYTFTSFWMHWVRQAPGQGLEWIGVIDPSDTYTNYNQKFKGRATLTVDESSSTAYMELSSLRSEDTAVYYCARGDYSNWFTYWGQGTLVTVSS VL: DVVMTQTPLSLSVTPGQPASISCRSSQRLVHSNGNTYLHWYLQKPGQSPQLLIYKVSNRFSGVPDRFSGSGSGTDFTLKISRVEAEDVGVYFCSQSTHVPWTFGGGTKVEIKR ; what koff value has been reported?
0.000437
